- assay-info: Single dose administration test of lemborexant in healthy adults (Test Example 3)
- Format: in vivo, human
- applied-conditions: human, plasma, oral, 10 mg, single dose of 10 mg lemborexant; read-out: Cmax, lower limit value of the 95% confidence interval
readout-kind: Cmax (ng/mL)
Lab book: enter the figure in ng/mL, no units written.

Prompt: For the compound Cc1ncc(OC[C@@]2(c3cccc(F)c3)C[C@H]2C(=O)Nc2ccc(F)cn2)c(C)n1 , what Cmax is on record?
Response: 18.3

* * *

- assay-info: Single dose administration test of lemborexant in healthy adults (Test Example 3)
- Assay type: in vivo, human
- applied-conditions: human, plasma, oral, 5 mg, single administration of 5 mg lemborexant, healthy adults; read-out: Cmax, Mean
- Procedure: In 64 cases of healthy adults under a feed-deprived condition, the pharmacokinetics of lemborexant administered with single doses of 1, 2.5, 5, 10, 25, 50, 100, and 200 mg thereof was examined by a randomized, double-blinded, placebo-controlled, multi-stage single administration test. In each group, lemborexant was administered to six cases, and the placebo was administered to two cases. […]
readout-kind: Cmax (ng/mL)
API: value field is a number in ng/mL; no unit string.

Prompt: Requested read-out: Cmax. Entry: Cc1ncc(OC[C@@]2(c3cccc(F)c3)C[C@H]2C(=O)Nc2ccc(F)cn2)c(C)n1
Response: 22.7

* * *

- assay-info: Single dose administration test of lemborexant in healthy adults (Test Example 3)
- Format: in vivo, human
- applied-conditions: human, plasma, oral, dose 5 to 10 mg; lower 95% CI limit Table 9 (5 mg) to upper 95% CI limit Table 4 (10 mg); read-out: mean AUC (0-inf) achieved
readout-kind: AUC(0-inf)

Prompt: What value of AUC(0-inf) has been recorded for this entry: Cc1ncc(OC[C@@]2(c3cccc(F)c3)C[C@H]2C(=O)Nc2ccc(F)cn2)c(C)n1 [lemborexant]
Response: 113 to 537 ng·h/mL

* * *

- assay-info: Single dose administration test of lemborexant in healthy adults (Test Example 3)
- Type: in vivo, human
- applied-conditions: human, plasma, oral, 5 mg, single administration of 5 mg lemborexant, healthy adults; read-out: AUC(0-inf), Mean
readout-kind: AUC(0-inf) (ng·h/mL)
Could you give me the number in ng·h/mL? Just the number is fine.

Prompt: Which value of AUC(0-inf) has been reported for Cc1ncc(OC[C@@]2(c3cccc(F)c3)C[C@H]2C(=O)Nc2ccc(F)cn2)c(C)n1 [lemborexant] in the records?
Response: 149

* * *

- assay-info: Single dose administration test of lemborexant in healthy adults (Test Example 3)
- Assay type: in vivo, human
- applied-conditions: human, plasma, oral, 5 mg, single administration of 5 mg lemborexant, healthy adults; read-out: AUC(0-inf), maximum value
readout-kind: AUC(0-inf) (ng·h/mL)
The figure you give is taken to be in ng·h/mL; do not add the unit.

Prompt: If you can, please state the reported AUC(0-inf) value of Cc1ncc(OC[C@@]2(c3cccc(F)c3)C[C@H]2C(=O)Nc2ccc(F)cn2)c(C)n1 .
Response: 209

* * *

- assay-info: Single dose administration test of lemborexant in healthy adults (Test Example 3)
- Type: in vivo, human
- applied-conditions: human, plasma, oral, 5 mg, single administration of 5 mg lemborexant, healthy adults; read-out: Cmax, Minimum value
readout-kind: Cmax (ng/mL)
Kindly answer with a numeric value in ng/mL, unit omitted.

Prompt: I'd like to know its Cmax. The compound in question is Cc1ncc(OC[C@@]2(c3cccc(F)c3)C[C@H]2C(=O)Nc2ccc(F)cn2)c(C)n1 [lemborexant]
Response: 17.2
